# measurement_protocol: Oral bioavailability in Beagle dog
# Format: ADME, organism-based, Canis lupus familiaris
# test_settings: in vivo
quantity_kind: bioavailability (%)

{"columns": ["smiles_code", "value"],
 "data": [
  ["C[C@@H](C(=O)N1CCOCC1)N1CC[C@H](NS(=O)(=O)CCc2ccc(Cl)s2)C1=O", 38],
  ["C/C(=C\\S(=O)(=O)N[C@H]1CCN([C@@H](C)C(=O)N2CCOCC2)C1=O)c1ccc(Cl)s1", 48]
]}

###

# measurement_protocol: Volume of distribution in Sprague-Dawley rat
# Assay type: ADME, organism-based
# test_settings: in vivo, read-out: Vdss
quantity_kind: Vd (L/kg)

{"columns": ["smiles_code", "Vd, L/kg"],
 "data": [
  ["C/C(=C\\S(=O)(=O)N[C@H]1CCN([C@@H](C)C(=O)N2CCOCC2)C1=O)c1ccc(Cl)s1", 0.4]
]}

[a] C[C@@H](C(=O)N1CCOCC1)N1CC[C@H](NS(=O)(=O)CCc2ccc(Cl)s2)C1=O
[b] C[C@@H](C(=O)N1CCOCC1)N1CC[C@H](NS(=O)(=O)/C=C/c2ccc(Cl)s2)C1=O
Q) Between a and b , which one has the lower reported Vd value? Reply with the label of the item you choose.
A) b
(b: 0.3 L/kg, a: 0.8 L/kg)
